tested on: Hs822T; experiment: Inhibition of cell proliferation, CellTiter-Glo, 72 hour; format: cell-based; settings: Ewing's Sarcoma cell line
pIC50: −log10 of the molar value.
METRIC: pIC50

Known results for compounds:
>  <COMPOUND>
CN1CC[C@H](c2c(O)cc(O)c3c(=O)cc(-c4ccccc4Cl)oc23)[C@H](O)C1 [Flavopiridol, flavopiridol, reference compound]

>  <METRIC>
pIC50

>  <RECORDED RESULT>
< 5.30

$$$$
>  <COMPOUND>
CN(C)C/C=C/C(=O)Nc1ccc(C(=O)N2CCC(Nc3ncc(C#N)c(-c4c[nH]c5ccccc45)n3)CC2)cc1

>  <METRIC>
pIC50

>  <RECORDED RESULT>
5.30 to 6.30

$$$$

Prompt line: Report pIC50 for CN(C)C/C=C/C(=O)Nc1ccc(C(=O)N2CC[C@@H](Nc3ncc(C#N)c(-c4c[nH]c5ccccc45)n3)C2)cc1 please.
Response line: < 5.30

Prompt line: CC(C)[C@]12O[C@H]1[C@@H]1O[C@]13[C@]1(O[C@H]1C[C@H]1C4=C(CC[C@@]13C)C(=O)OC4)[C@@H]2O [Triptolide, triptolide, reference compound] , same question.
Response line: 5.30 to 6.30

---

Measured pIC50 accompanies every entry in the list below.
test system: MCF-7; test: Inhibition of cell proliferation, CellTiter-Glo, 72 hour; assay type: cell-based; conditions: Homo sapiens, MCF7, Breast Cancer/Breast cell line
pIC50: −log10 of the molar value.

The examples below pair each entry with its known result.
>  <COMPOUND>
CN(C)C/C=C/C(=O)Nc1ccc(C(=O)N2CCC(Nc3ncc(C#N)c(-c4c[nH]c5ccccc45)n3)CC2)cc1

>  <SYSTEM NAME>
MCF-7

>  <pIC50>
> 6.30

$$$$
>  <COMPOUND>
CN(C)C/C=C/C(=O)Nc1ccc(C(=O)N2CC[C@@H](Nc3ncc(C#N)c(-c4c[nH]c5ccccc45)n3)C2)cc1

>  <SYSTEM NAME>
MCF-7

>  <pIC50>
< 5.30

$$$$
>  <COMPOUND>
CN(C)C/C=C/C(=O)Nc1ccc(C(=O)N2CC[C@@H](Nc3ncc(Cl)c(-c4c[nH]c5ccccc45)n3)C2)cc1

>  <SYSTEM NAME>
MCF-7

>  <pIC50>
5.30 to 6.30

$$$$

Could you now look at the following compound, please?
Prompt line: Look up pIC50 for this compound: CC(C)[C@]12O[C@H]1[C@@H]1O[C@]13[C@]1(O[C@H]1C[C@H]1C4=C(CC[C@@]13C)C(=O)OC4)[C@@H]2O [Triptolide, triptolide, reference compound]
Response line: > 6.30

---

Data export: IC50 values recorded with CDK7 (Homo sapiens, UniProt P50613).
Sequence (P50613 whole entry): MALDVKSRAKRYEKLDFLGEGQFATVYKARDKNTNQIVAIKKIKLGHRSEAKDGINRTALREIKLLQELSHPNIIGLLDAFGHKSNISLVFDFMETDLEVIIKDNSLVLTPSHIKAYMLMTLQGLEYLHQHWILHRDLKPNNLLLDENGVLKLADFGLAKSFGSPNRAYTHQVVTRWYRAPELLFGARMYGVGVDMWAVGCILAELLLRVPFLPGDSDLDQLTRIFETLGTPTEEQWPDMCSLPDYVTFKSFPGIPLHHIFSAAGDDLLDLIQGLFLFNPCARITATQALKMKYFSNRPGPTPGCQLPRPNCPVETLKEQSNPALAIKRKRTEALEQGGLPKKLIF
Sequence (P51946 whole entry partner): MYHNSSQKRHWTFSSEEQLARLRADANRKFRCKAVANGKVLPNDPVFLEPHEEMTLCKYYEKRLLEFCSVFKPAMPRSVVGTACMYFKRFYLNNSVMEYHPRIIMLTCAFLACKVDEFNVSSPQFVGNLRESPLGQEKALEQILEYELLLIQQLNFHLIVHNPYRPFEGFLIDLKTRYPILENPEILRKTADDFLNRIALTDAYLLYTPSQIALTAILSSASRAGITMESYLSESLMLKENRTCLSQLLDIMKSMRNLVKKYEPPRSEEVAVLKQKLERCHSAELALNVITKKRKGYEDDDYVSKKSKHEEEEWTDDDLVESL
Sequence (P51948 whole entry partner): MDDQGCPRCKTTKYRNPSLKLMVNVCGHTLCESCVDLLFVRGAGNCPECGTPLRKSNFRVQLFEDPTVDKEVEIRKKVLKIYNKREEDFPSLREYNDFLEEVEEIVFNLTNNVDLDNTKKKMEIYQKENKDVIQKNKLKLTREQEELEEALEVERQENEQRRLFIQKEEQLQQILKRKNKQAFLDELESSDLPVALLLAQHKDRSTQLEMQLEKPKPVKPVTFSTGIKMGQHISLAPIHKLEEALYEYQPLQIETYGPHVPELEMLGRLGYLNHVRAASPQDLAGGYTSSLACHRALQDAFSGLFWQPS

Completed entries (count: 4):
>  <COMPOUND>
CN(C)C/C=C/C(=O)Nc1ccc(C(=O)N2[C@@H]3CC[C@H]2C[C@@H](Nc2ncc(Cl)c(-c4c[nH]c5ccccc45)n2)C3)cc1

>  <IC50>
100 to 1000 nM

$$$$
>  <COMPOUND>
CN(C)CC=CC(=O)Nc1ccc(C(=O)NC2CNCC(Nc3ncc(Cl)c(-c4c[nH]c5ccccc45)n3)C2)cc1 (racemic)

>  <IC50>
< 100 nM

$$$$
>  <COMPOUND>
CN(C)C/C=C/C(=O)Nc1ccc(C(=O)N[C@@H]2CC[C@H](Nc3ncc(Cl)c(-c4cccnc4)n3)C2)cc1 (racemic)

>  <IC50>
100 to 1000 nM

$$$$
>  <COMPOUND>
CN(C)C/C=C/C(=O)NCCC(=O)Nc1cccc(Nc2ncc(Cl)c(-c3c[nH]c4ccccc34)n2)c1

>  <IC50>
100 to 1000 nM

$$$$

Prompt line: What does the data say about its IC50? Entry: C=CC(=O)Nc1ccc(CNC(=O)C2CC(Nc3ncc(Cl)c(-c4c[nH]c5ccccc45)n3)CN(C)C2)cc1 (racemic)
Response line: < 100 nM

Prompt line: Param item: Nc1ccc(S(=O)(=O)N2CC[C@@H](Nc3ncc(Cl)c(-c4c[nH]c5ccccc45)n3)C2)cc1
Response line: < 100 nM

Prompt line: And the next one, C=CC(=O)Nc1ccc(C(=O)NC2CC3(C2)CC(Nc2ncc(Cl)c(-c4c[nH]c5ccccc45)n2)C3)cc1 (stereo not shown) ?
Response line: 100 to 1000 nM

Data origin, for the record: patent US20190292167A1
